Reference source: patent US9963448B2

Target: hPAD4 (Homo sapiens)
Sequence (Q9UM07 whole entry): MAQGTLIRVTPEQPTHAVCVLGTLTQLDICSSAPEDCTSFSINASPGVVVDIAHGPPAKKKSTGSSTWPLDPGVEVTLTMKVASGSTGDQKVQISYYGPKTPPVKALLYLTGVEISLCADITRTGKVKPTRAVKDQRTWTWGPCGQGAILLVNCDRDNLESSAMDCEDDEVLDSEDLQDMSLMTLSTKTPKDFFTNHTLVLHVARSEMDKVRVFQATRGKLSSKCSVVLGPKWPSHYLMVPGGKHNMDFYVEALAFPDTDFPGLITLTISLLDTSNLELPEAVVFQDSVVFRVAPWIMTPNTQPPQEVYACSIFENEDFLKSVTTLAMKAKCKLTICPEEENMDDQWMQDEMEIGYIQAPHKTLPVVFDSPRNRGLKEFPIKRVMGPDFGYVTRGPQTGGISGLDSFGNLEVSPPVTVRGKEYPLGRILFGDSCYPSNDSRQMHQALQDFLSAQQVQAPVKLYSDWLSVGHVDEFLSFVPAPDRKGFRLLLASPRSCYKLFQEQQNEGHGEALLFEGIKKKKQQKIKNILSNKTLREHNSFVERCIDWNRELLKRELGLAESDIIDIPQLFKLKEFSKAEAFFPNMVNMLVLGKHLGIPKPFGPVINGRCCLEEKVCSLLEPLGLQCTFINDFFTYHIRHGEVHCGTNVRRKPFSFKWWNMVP
Assay: hPAD4 RFMS (RapidFire mass spectrometry) PAD4 inhibition assay;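 further: grade E means pIC50 at most 4 and F means pIC50 4.0 to 5.0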
Format: biochemical
Conditions: hPAD4 enzyme, RFMS readout; pIC50=−log(IC50); read-out: hPAD4 RFMS pIC50 (converted)
OBSERVED_PROPERTY: IC50

- COc1cc(C(=O)N2CC[C@@H](F)[C@H](N)C2)cc2nc(-c3cc4cccnc4n3CC3CC3)n(C)c12 [Compound I-57]: 1 to 10 µM

Enquiry: Given COc1cc(C(=O)N2CCC3(CNCCC3(F)F)C2)cc2nc(-c3cc4cccnc4n3CC3CC3)n(C)c12 (racemic) [Compound I-97] , state its recorded IC50.
Return: 10 to 100 µM

Enquiry: Given Cn1c(-c2cc3cccnc3n2CC2CC2)nc2cc(C(=O)N3CCC[C@@H](N)C3)cc(F)c21 [Compound I-166] , state its recorded IC50.
Return: < 1 µM

Enquiry: Given COc1cc(C(=O)N2CC[C@]3(CNCCC3(F)F)C2)cc2nc(-c3cc4cccnc4n3CC3CC3)n(C)c12 [Compound I-107] , state its recorded IC50.
Return: 10 to 100 µM
